system: SF-268; assay: NCI tumour cell line growth inhibition, 48 h
Activity calls are given as the source filed them. No stated cut-off is given here; in the data, active = GI50 up to about 1.1 µM and inactive = higher.
Outcome codes: active, inactive

molecule=N=C(N)SCCSC(=N)N class_label=inactive
molecule=CCOC(=O)COc1ccc2c(C)cc(=O)oc2c1 class_label=inactive
molecule=CC(C)(C)c1ccc2c(c1)OP1(Oc3c(Cl)cc(Cl)c4cccnc34)(O2)Oc2ccc(C(C)(C)C)cc2O1 class_label=inactive
molecule=N#Cc1c(NC(=S)Nc2ccccc2)sc2c1CCCC2 class_label=inactive
molecule=CSC(=O)/C=C1\SS/C(=C\C(=O)SC)S1 class_label=inactive
molecule=CC(C)=CCC[C@@H](C)c1c2nc3ccccc3[nH]c-2c(C)c(=O)c1O class_label=active
molecule="CCOc1cc(NC(C)=O)ccc1C(=O)NN1C(=O)CSC1c1ccc(O)c(OC)c1 (configuration not stated)" class_label=inactive
molecule="N#CC(c1ccccc1)N1CCCN(C(C#N)c2ccccc2)C1c1ccccc1O (configuration not stated)" class_label=inactive
molecule=CCOC(=O)c1[nH]c2cc(OC)c(OC)cc2c1CN(C)C class_label=inactive
molecule=C/C(=N\NC(=S)NCCNC(=S)N/N=C(\C)c1ccccn1)c1ccccn1 class_label=inactive
molecule="CC(C)N1CCN(c2ccc(OCC3COC(Cn4cncn4)(c4ccc(Cl)cc4Cl)O3)cc2)CC1 (configuration not stated) [TERCONAZOLE]" class_label=inactive
molecule="CN(C)C1C(CO)OC(n2cnc3c(N)ncnc32)C1O (configuration not stated)" class_label=inactive

----------
Recorded GI50 by entry
test system: DMS-114; experiment: NCI tumour cell line growth inhibition, 48 h
Activity calls are given as the source filed them. No stated cut-off is given here; in the data, active = GI50 up to about 1.1 µM and inactive = higher.
TEST READOUT: GI50

compound=O=[N+]([O-])c1cccc(/C=N/C23CC4CC(CC(C4)C2)C3)c1 test_readout=GI50 observed_value="> 100 µM (inactive)"
compound="N#CC1(C2CC(=O)N(c3ccccc3)C2=O)CCCCC1=O (stereo not given)" test_readout=GI50 observed_value="> 100 µM (inactive)"
compound=O=C(CSc1nnc(Cc2ccccc2)o1)Nc1ccc(Cl)cc1Cl test_readout=GI50 observed_value="> 100 µM (inactive)"
compound="Nc1nncc2c1c(Br)cn2C1OC(CO)C(O)C1O (stereo not given)" test_readout=GI50 observed_value="9.35 µM (inactive)"
compound="COc1cc2c(cc1OC)C1Cc3cc(OC)c(OC)cc3N1CC2 (stereo not given)" test_readout=GI50 observed_value="15.1 µM (inactive)"
compound="Cc1ccc(S(=O)(=O)OC2CS[S+]([O-])CC2OS(=O)(=O)c2ccc(C)cc2)cc1 (stereo not given)" test_readout=GI50 observed_value="17.9 µM (inactive)"
compound="COC(=O)C(Cc1ccc2c(c1)OCO2)(NC(=O)c1ccccc1)P(=O)(OC)OC (stereo not given)" test_readout=GI50 observed_value="> 100 µM (inactive)"
compound="Fc1ccc(C2SCc3nc4ccccc4n32)cc1Cl (stereo not given)" test_readout=GI50 observed_value="19.9 µM (inactive)"
compound="CC(C)CC(CNC(Cc1ccc(Cl)cc1)C(N)=O)NC(=O)C(Cc1c[nH]cn1)NC(=O)CNC(=O)C(NC(=O)C(C)NC(=O)C(Cc1c[nH]c2ccccc12)NC(=O)C(CCC(=O)O)NC(=O)C(N)Cc1ccccc1)C(C)C (stereo not given)" test_readout=GI50 observed_value="119 µM (inactive)"
compound="Cc1ccccc1C1CC(c2ccccc2)=NO1 (stereo not given)" test_readout=GI50 observed_value="> 100 µM (inactive)"

----------
system: UACC-257; assay: NCI tumour cell line growth inhibition, 48 h
The source made the active and inactive calls. Rule as the data show it: active = GI50 up to about 1.1 µM and inactive = higher.
TEST READOUT: GI50

compound="c1ccc(P(CCP(CCP(c2ccccc2)c2ccccc2)c2ccccc2)CCP(c2ccccc2)c2ccccc2)cc1 (centres undefined)" observed_value="> 10 µM (inactive)"
compound=c1ccc2c(Cc3[nH]c4ccccc4c3Cc3c[nH]c4ccccc34)c[nH]c2c1 observed_value="2.71 µM (inactive)"
compound=O=C1/C(=C/c2ccc(O)cc2)CCc2ccccc21 observed_value="17.3 µM (inactive)"
compound=CCOP(=O)(OCC)/C(C#N)=C/c1[nH]cnc1C observed_value="> 100 µM (inactive)"
compound=CC(=O)c1ccc2c3c1O[C@H]1c4[nH]c5ccccc5c4C[C@@]4(O)[C@@H](C2)N(CC2CC2)CC[C@]314 observed_value="16.8 µM (inactive)"
compound=Cc1cccc(C)c1NC(=O)CCc1nnc2s/c(=C\c3ccc(Cl)cc3)c(=O)n12 observed_value="> 100 µM (inactive)"
compound="CC(C)(C)OC(=O)C1=C(N)N(Cc2ccccc2)C2(C)C=CC(=O)C=C12 (centres undefined)" observed_value="5.24 µM (inactive)"
compound=COC(OC)[C@@H]1OC[C@H](n2cnc3c(N)ncnc32)[C@H]1O observed_value="> 100 µM (inactive)"
compound="CCNC(=O)O/N=C1\\CCC2[C@@H]3CC=C4C[C@@H](OC5CCCCO5)CC[C@]4(C)C3CC[C@]12C (some centres undefined)" observed_value="1.61 µM (inactive)"

----------
system: M19-MEL; test: NCI tumour cell line growth inhibition, 48 h
Active and inactive are the calls of the source. Rule as the data show it: active = GI50 up to about 1.1 µM and inactive = higher.
Recorded GI50 by entry
TEST READOUT: GI50

compound="CCNC(=O)O/N=C1\\CCC2[C@@H]3CC=C4C[C@@H](OC5CCCCO5)CC[C@]4(C)C3CC[C@]12C (some centres not stated)" observed_value="1.76 µM (inactive)"
compound="O=C(/C=C/c1ccccc1)NC1C=Nc2ccc([N+](=O)[O-])cc2NC1=O (configuration not stated)" observed_value="38.4 µM (inactive)"
compound=O=CN1CCN(C=S)CC1 observed_value="> 100 µM (inactive)"
compound=CCCc1n[nH]c(CCC(=O)N(Cc2ccccc2)Cc2ccccc2)c1CC observed_value="> 100 µM (inactive)"
compound="CCOC(=O)C(C(=O)Cc1ccccc1)c1ccccc1 (configuration not stated)" observed_value="> 100 µM (inactive)"
compound="NC(CCCCNCc1ccccc1O)C(=O)O (configuration not stated)" observed_value="> 100 µM (inactive)"
compound=c1ccc2c(c1)Cc1c(Cc3csc4ccccc34)ccc3cccc-2c13 observed_value="> 100 µM (inactive)"
compound=Cc1cc(C)nc(NS(=O)(=O)c2ccc(Nc3c4ccccc4nc4c(C(=O)NCCN(C)C)cccc34)cc2)n1 observed_value="3.44 µM (inactive)"
compound=COC(=O)C1=C(O)c2cc(-c3ccccc3)c(-c3ccccc3)c(C#N)c2NC(=O)C1 observed_value="14.5 µM (inactive)"
compound=Brc1ccccc1/C=N\C12CC3CC(CC(C3)C1)C2 observed_value="> 76.6 µM (inactive)"
compound="CSC(C1c2ccccc2N(c2ccc(C)cc2)C2=NC(=O)N(C)C(=O)C21Cl)S(=O)(=O)c1ccc(C)cc1 (configuration not stated)" observed_value="23.7 µM (inactive)"
compound=O=C(O)c1c2c(cc3c(=O)c4ccccc4[nH]c13)CCCC2 observed_value="> 100 µM (inactive)"

----------
system: HL-60; assay: NCI tumour cell line growth inhibition, 48 h
Activity calls are given as the source filed them. Rule as the data show it: active = GI50 up to about 1.1 µM and inactive = higher.
TEST READOUT: GI50

molecule="O=C(CC1(O)C(=O)Nc2ccccc21)c1ccccc1Cl (stereo not given)" system_name=HL-60 observed_value="> 100 µM (inactive)"
molecule=CC1(C)CC(=O)c2c(nc3c(ccc4ccccc43)c2-c2ccc(NC(=O)CCCC(=O)Nc3ccc(-c4c5c(nc6c4ccc4ccccc46)CC(C)(C)CC5=O)cc3)cc2)C1 system_name=HL-60 observed_value="> 100 µM (inactive)"
molecule="Cc1cc(O)nc(NN2C(Cl)C(=O)C2c2cccc(Cl)c2)n1 (stereo not given)" system_name=HL-60 observed_value="16 µM (inactive)"
molecule=Cc1cc(OCc2nnc3n2S(=O)(=O)c2ccccc2N3C)ccc1Cl system_name=HL-60 observed_value="21 µM (inactive)"
molecule="COc1cc2c(cc1OC)C1Cc3cc(OC)c(OC)cc3N1CC2 (stereo not given)" system_name=HL-60 observed_value="20.9 µM (inactive)"

----------
tested on: SW-620; test: NCI tumour cell line growth inhibition, 48 h
The source made the active and inactive calls. No stated cut-off is given here; in the data, active = GI50 up to about 1.1 µM and inactive = higher.
Outcome codes: active, inactive

molecule=Cc1[nH]c2ccccc2c1/C=N/c1ccc(/N=C/c2c(C)[nH]c3ccccc23)cc1 class_label=inactive
molecule=Clc1ccccc1-c1nn2c(CCCCCCCCc3nnc4sc(-c5ccccc5Cl)nn34)nnc2s1 class_label=inactive
molecule="Cc1cc(O)nc(NN2C(Cl)C(=O)C2c2cccc(Cl)c2)n1 (stereo unspecified)" class_label=inactive
molecule="CC[C@]1(O)CC(OC2CC(N(C)C)C(O)C(C)O2)c2c(cc3c(c2O)C(=O)c2c(O)cccc2C3=O)[C@@H]1C(=O)OC (stereo partly specified)" class_label=active
molecule=C1=N\CCN2CCN(CC/N=C\c3ccccc3OCc3cccc(n3)COc3ccccc3/1)CC2 class_label=inactive
molecule=C/C(CC(=O)Nc1ccc([N+](=O)[O-])cc1)=N\NC(N)=O class_label=inactive
molecule="O=C(CC1(O)C(=O)Nc2c(Cl)ccc(Cl)c21)c1ccc(Cl)cc1 (stereo unspecified)" class_label=inactive
molecule=O=CN1CCN(C=S)CC1 class_label=inactive
molecule=CC(=O)c1cccc(Nc2nc3ccc(Cl)cc3c3[nH]c4ccccc4c23)c1 class_label=inactive
molecule="CC(C)N1CCN(c2ccc(OCC3COC(Cn4cncn4)(c4ccc(Cl)cc4Cl)O3)cc2)CC1 (stereo unspecified)" class_label=inactive
molecule=O=C1C(Cl)=C(NCCN2CCOCC2)C(=O)c2ncccc21 class_label=inactive
molecule="CC(=O)NC(Cc1ccc(O)cc1)C(=O)O (stereo unspecified)" class_label=inactive
molecule=CCOC(=O)/C(Cl)=C(\C)Nc1nc2c(ccc3ccccc32)s1 class_label=inactive
molecule=COC(=O)[C@@H]1C(=O)O[C@@H](c2cc(OC)c(OC)cc2OC)[C@@H]1C(=O)OC.COC(=O)[C@H]1C(=O)O[C@@H](c2cc(OC)c(OC)cc2OC)[C@@H]1C(=O)OC class_label=inactive
molecule=COc1ccc2nc(-n3c(/C=C/c4ccccc4O)nc4ccccc4c3=O)sc2c1 class_label=inactive
molecule="CN1N(c2ccccc2)C(=O)C2=NC=C(C#N)C(=N)C21C (stereo unspecified)" class_label=inactive
molecule="NC1CC(=O)c2c(I)sc(I)c21 (stereo unspecified)" class_label=inactive
molecule="N#CC(C(=O)C(=O)C(C#N)c1ccc(Br)cc1)c1ccc(Br)cc1 (stereo unspecified)" class_label=inactive
molecule="C=CCNC(=S)N1CC(C)C(=O)Nc2ccccc21 (stereo unspecified)" class_label=inactive
molecule=CN(C)c1ccc(/C=c2/c3ccccc3n3c2cc(NC(=O)NCCC[N+](C)(C)C)[n+]3C)cc1 class_label=inactive
molecule=Oc1cc(O)cc(-c2nc3cc(F)ccc3s2)c1 class_label=inactive
